Source: the supplement of paper PMC11451515

# Tested on: NOMO1
# protocol: cell viability relative to DMSO control; higher = less cytotoxic
# reported_conditions: RPMI 5 mM glucose + 10% FBS; 48 h; 5.12 µM
Measured cell viability of individual entries
Give just the numeric value; % need not be written.

Some entries whose results are on file:
[[record]]
compound = "Cc1cccc(N(C)C(=S)Oc2ccc3ccccc3c2)c1"
target_entity = "NOMO1"
recorded_result = 94.5

[[record]]
compound = "C=C[C@H]1CN2CCC1C[C@@H]2[C@@H](O)c1ccnc2ccccc12 (some centres undefined)"
target_entity = "NOMO1"
recorded_result = 89.9

[[record]]
compound = "CC[C@H](NC(C)C)[C@H](O)c1ccc(O)c2[nH]c(=O)ccc12"
target_entity = "NOMO1"
recorded_result = 97

[[record]]
compound = "CCc1ccc(C(=O)Nc2cc(CN3CCN(C)CC3)cc(C(F)(F)F)c2)cc1C#Cc1cnc2ccnn2c1"
target_entity = "NOMO1"
recorded_result = 119

[[record]]
compound = "NC(=O)c1ccc(-c2nc(-c3ccc4c(c3)OCO4)c(-c3ccccn3)[nH]2)cc1"
target_entity = "NOMO1"
recorded_result = 108

[[record]]
compound = "CNC(=O)c1ccc(N2C(=S)N(c3ccc(C#N)c(C(F)(F)F)c3)C(=O)C2(C)C)cc1F"
target_entity = "NOMO1"
recorded_result = 123

[[record]]
compound = "COCCCOc1ccnc(C[S+]([O-])c2nc3ccccc3[nH]2)c1C (centres undefined)"
target_entity = "NOMO1"
recorded_result = 115

[[record]]
compound = "CC1=CC=C2\\N=C/3N(CC[C@@]3(O)C(=O)C2=C1)C4=CC=CC=C4"
target_entity = "NOMO1"
recorded_result = 75.8


Attention now turns to another entry.
Incoming: GET /values?readout=cell viability&item= "O=[S+]([O-])(/N=C/c1c(O)ccc2ccccc12)c1cccs1"
Outgoing: 126
